System: PC3 (prostate) human cancer cell line
assaySummary: resazurin-based cytotoxicity assay, PC3
Type: cell-based
measurementContext: PC3 (prostate), 72 h incubation, mean ± SD of triplicate wells
propertyMeasured: IC50

>  <smilesStructure>
O=Cc1c(N2CCCC2)c2ccccc2oc1=O

>  <endpointResult>
> 80 µM

$$$$
>  <smilesStructure>
O=c1oc2ccccc2c(NCC2CCNCC2)c1[N+](=O)[O-]

>  <endpointResult>
> 80 µM

$$$$
>  <smilesStructure>
COc1c(C=O)c(=O)oc2ccccc12

>  <endpointResult>
> 80 µM

$$$$
>  <smilesStructure>
O=c1oc2ccccc2c(N2CCOCC2)c1[N+](=O)[O-]

>  <endpointResult>
7.31 µM

$$$$
>  <smilesStructure>
O=Cc1c(NCC2CCNCC2)c2ccccc2oc1=O

>  <endpointResult>
> 80 µM

$$$$
>  <smilesStructure>
COC(=O)/C(C#N)=C/c1c(NCC2CCNCC2)c2ccccc2oc1=O

>  <endpointResult>
11.3 µM

$$$$
>  <smilesStructure>
N#CC(C#N)=C(N)/C(C#N)=C/c1c(N2CCCC2)c2ccccc2oc1=O

>  <endpointResult>
> 80 µM

$$$$
>  <smilesStructure>
N#CC(C#N)=Cc1c(NCC2CCNCC2)c2ccccc2oc1=O

>  <endpointResult>
> 50 µM

$$$$

----------
// reported melting point per item
propertyMeasured: melting point

>  <smilesStructure>
O=c1oc2ccccc2c(NCC2CCNCC2)c1[N+](=O)[O-]

>  <endpointResult>
208 to 210 °C

$$$$
>  <smilesStructure>
COC(=O)/C(C#N)=C/c1c(N2CCCC2)c2ccccc2oc1=O

>  <endpointResult>
230 to 232 °C

$$$$
>  <smilesStructure>
N#CC(C#N)=C(N)/C(C#N)=C/c1c(N2CCCCC2)c2ccccc2oc1=O

>  <endpointResult>
308 to 310 °C

$$$$
>  <smilesStructure>
COC(=O)/C(C#N)=C/c1c(N2CCOCC2)c2ccccc2oc1=O

>  <endpointResult>
218 to 220 °C

$$$$
>  <smilesStructure>
COC(=O)/C(C#N)=C/c1c(OC)c2ccccc2oc1=O

>  <endpointResult>
148 to 150 °C

$$$$

----------
propertyMeasured: melting point

>  <compound>
O=c1oc2ccccc2c(N2CCCC2)c1[N+](=O)[O-] [Compound 9a, 4-Pyrrolidino-3-nitro-2H-chromen-2-one]

>  <endpointResult>
204 to 206 °C

$$$$
>  <compound>
N#CC(C#N)=C(N)/C(C#N)=C/c1c(N2CCCC2)c2ccccc2oc1=O [Compound 8a]

>  <endpointResult>
> 320 °C

$$$$
>  <compound>
COC(=O)/C(C#N)=C/c1c(N2CCC(O)CC2)c2ccccc2oc1=O [Compound 4c]

>  <endpointResult>
194 to 196 °C

$$$$
>  <compound>
N#CC(C#N)=Cc1c(N2CCOCC2)c2ccccc2oc1=O [Compound 8d]

>  <endpointResult>
196 to 198 °C

$$$$
>  <compound>
COC(=O)/C(C#N)=C/c1c(NCC2CCNCC2)c2ccccc2oc1=O [Compound 4e]

>  <endpointResult>
172 to 174 °C

$$$$
>  <compound>
O=Cc1c(N2CCCC2)c2ccccc2oc1=O [Compound 5a, 4-Pyrrolidino-3-formyl-2H-chromen-2-one]

>  <endpointResult>
190 to 192 °C

$$$$
>  <compound>
N#CC(C#N)=Cc1c(N2CCC(O)CC2)c2ccccc2oc1=O [Compound 8c]

>  <endpointResult>
294 to 296 °C

$$$$
>  <compound>
O=c1oc2ccccc2c(N2CCOCC2)c1[N+](=O)[O-] [Compound 9d, 4-Morpholino-3-nitro-2H-chromen-2-one]

>  <endpointResult>
210 to 212 °C

$$$$
